- Tested on: RPS6KA5(Kin.Dom.2-C-terminal)
- test-settings: concentration: 1 μM, replicates: in singlicate; n = 1;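 also: KINOMEscan kinase panel screen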
readout-name: %Inh (%)
Numbers only; they are read as %.

A selection of reference data follows.
{"compound": "COc1cc(Nc2nccc(N3CCC(NC(=O)c4cccc(NC(C)=O)c4)C3)n2)cc(OC)c1OC (centres unmarked)", "observed-result": 0}
{"compound": "COC(=O)Nc1nc2cc(Oc3ccc(NC(=O)Nc4cc(F)ccc4F)cc3)ccc2[nH]1.Cl", "observed-result": 43}
{"compound": "O=C1NC(=O)C(N2CCc3ccccc32)=C1c1cccc(Cl)c1", "observed-result": 0}
{"compound": "O=C(NCCNc1ccnc(Nc2ccc(F)cc2)n1)Nc1ccccc1F", "observed-result": 15}

Pending compound:
RPS6KA5(Kin.Dom.2-C-terminal) data for Nc1nc(-c2ccc3c(N)n[nH]c3c2)cc(N2CCCC2)n1 ; its %Inh: 0

###

- Tested on: CDK5
- test-settings: concentration: 1 μM, replicates: in singlicate; n = 1
readout-name: %Inh

CDK5 data for Cc1ccc(NC(=O)c2ccnc(N3CCN(C)CC3)c2)cc1-c1ccc(C(=O)NCC2CC2)cc1 ; its %Inh: 0%

CDK5 data for N#Cc1ccc(-c2cc(-c3c[nH]nc3-c3ccccn3)ccn2)cc1 ; its %Inh: 0%

CDK5 data for CC(C)(C)n1cnc2c(N)ncnc21 ; its %Inh: 0%

CDK5 data for CCCCCc1nc2c(N)ncnc2n1CCCCC ; its %Inh: 0%

CDK5 data for NS(=O)(=O)c1cccc(-c2ccc3nccc(-c4cccc(S(N)(=O)=O)c4)c3c2)c1 ; its %Inh: 0%

CDK5 data for CN1c2ccc(NCc3ccc(F)cc3)cc2-c2c(cnn2C)S1(=O)=O ; its %Inh: 6%

CDK5 data for CCc1ccnc(/C=C/c2n[nH]c3cc(Sc4ccccc4C(=O)NC)ccc23)c1 ; its %Inh: 1%

CDK5 data for Cn1ccc2ncnc(Oc3ccc(NC(=O)Nc4ccncc4)c(Cl)c3)c21 ; its %Inh: 0%

CDK5 data for c1ccc(-c2cc(-c3c[nH]nc3-c3ccccn3)ccn2)cc1 ; its %Inh: 0%

CDK5 data for CSc1ccc(-c2cc3ncnc(SCC(=O)O)c3s2)cc1 ; its %Inh: 22%

###

// reported %Inh per item
- Tested on: MYLK2
- test-settings: concentration: 1 μM, replicates: in singlicate; n = 1
Numbers only; they are read as %.

Short answer for Fc1ccc(-c2nn3c(OCC(F)(F)F)cccc3c2-c2ccncc2)cc1 : %Inh was 1

Short answer for Fc1ccc(-c2ncn(CCCN3CCOCC3)c2-c2cccnc2)cc1 : %Inh was 1

Short answer for O=C(NCCNc1ccnc(Nc2ccc(F)cc2)n1)Nc1ccccc1F : %Inh was 1

###

- Test system: DMPK2
- Construct: gene CDC42BPG
- test-settings: concentration: 1 μM, replicates: in singlicate; n = 1
readout-name: %Inh (%)
Numbers only; they are read as %.

A selection of reference data follows.
{"smi": "O=C1NC(=O)C(N2CCc3ccccc32)=C1c1cccc(Cl)c1", "assayed-target": "DMPK2", "observed-result": 0}
{"smi": "O=C(NOCC1CC1)c1ccc(F)c(F)c1Nc1ccc(I)cc1Cl", "assayed-target": "DMPK2", "observed-result": 0}

Pending compound:
DMPK2 data for O=C(Nc1n[nH]c2cc(-c3cccc(F)c3)ccc12)C1CC1 ; its %Inh: 0

###

- Test system: CSNK1E
- test-settings: concentration: 1 μM, replicates: in singlicate; n = 1
readout-name: %Inh (%)
Numbers only; they are read as %.

{"compound": "[2H]C([2H])(c1cccc(C(F)(F)F)c1C)n1ccn2c(=O)nc(N3CCOCC3)cc12 [GSK2336394]", "assayed-target": "CSNK1E", "%Inh, %": 12}
{"compound": "O=C(Nc1n[nH]c2cc(-c3cccc(F)c3)ccc12)C1CC1 [SB-735464]", "assayed-target": "CSNK1E", "%Inh, %": 0}

Pending compound:
Short answer for NS(=O)(=O)c1cccc(-c2ccc3ncc(N4CCOCC4)nc3c2)c1 [GSK1535721] : %Inh was 0

###

- Test system: PAK4
- test-settings: concentration: 1 μM, replicates: in singlicate; n = 1
// reported %Inh per item
Numbers only; they are read as %.

{"smi": "CC(C)(CN)c1nc(-c2ccc(Cl)c(O)c2)c(-c2ccncc2)[nH]1.O=C(O)C(F)(F)F", "observed-result": 0}
{"smi": "O=c1cc(N2CCOCC2)nc2n(Cc3cccc(F)c3)ccn12", "observed-result": 0}

Pending molecule:
Short answer for c1ccc(-c2n[nH]cc2-c2ccnc3ccccc23)nc1 : %Inh was 0

###

- System: SGK2
- test-settings: concentration: 1 μM, replicates: in singlicate; n = 1
readout-name: %Inh (%)
Numbers only; they are read as %.

A selection of reference data follows.
{"smi": "Cc1cccc(Cn2ccn3c(=O)cc(N4CCOCC4)nc23)c1", "%Inh [%]": 1}
{"smi": "Fc1ccc(-c2ncn(CCCN3CCOCC3)c2-c2cccnc2)cc1", "%Inh [%]": 0}
{"smi": "CCCCCc1nc2c(N)ncnc2n1CCCCC", "%Inh [%]": 0}
{"smi": "O=c1cc(N2CCOCC2)nc2n(Cc3cccc4ccccc34)ccn12", "%Inh [%]": 0}

Pending molecule:
SGK2 data for [2H]C([2H])(c1cccc(C(F)(F)F)c1C)n1ccn2c(=O)nc(N3CCOCC3)cc12 ; its %Inh: 1

###

- Tested on: HIPK1
- test-settings: concentration: 1 μM, replicates: in singlicate; n = 1
readout-name: %Inh (%)
Numbers only; they are read as %.

A selection of reference data follows.
{"molecule": "Cn1ccc2ncnc(Oc3ccc(NC(=O)Nc4ccncc4)c(Cl)c3)c21", "%Inh / %": 17}
{"molecule": "O=c1cc(N2CCOCC2)nc2n(Cc3cccc(Cl)c3Cl)c(C3CC3)nn12", "%Inh / %": 16}
{"molecule": "COc1cc(Nc2nccc(N3CCC(NC(=O)c4cccc(NC(C)=O)c4)C3)n2)cc(OC)c1OC (stereo not drawn)", "%Inh / %": 3}
{"molecule": "O=C(NCCCN1CCOCC1)c1cccc(Nc2nccc(Nc3ccc(Oc4ccccc4)cc3)n2)c1", "%Inh / %": 14}

Short answer for O=C(Nc1n[nH]c2cc(-c3cccc(F)c3)ccc12)C1CC1 : %Inh was 7

Short answer for c1ccc(-c2cc(-c3c[nH]nc3-c3ccccn3)ccn2)cc1 : %Inh was 0

###

- Test system: KIT
- test-settings: concentration: 1 μM, replicates: in singlicate; n = 1
Returns label 1 if the recorded %Inh is greater than or equal to 30%, and label 0 otherwise.

Solved cases (4 shown):
{"compound": "N#Cc1ccc(-c2cc(-c3c[nH]nc3-c3ccccn3)ccn2)cc1 [GW693028]", "qualitative-label": "label 0"}
{"compound": "CC(C)(C)n1cnc2c(N)ncnc21 [SKF-97359]", "qualitative-label": "label 0"}
{"compound": "COCCNC(=O)c1ccc(-c2cc(C(=O)NC3CC3)cc(F)c2C)cc1 [GW868318]", "qualitative-label": "label 0"}
{"compound": "CCc1ccnc(/C=C/c2n[nH]c3cc(Sc4ccccc4C(=O)NC)ccc23)c1", "qualitative-label": "label 1"}

Decide: is the reported value of %Inh for COc1cc2c(cc1OC[C@@H](O)CO)ncc1c3ccc(C#N)cc3[nH]c21 equal to or greater than 30%?
label 1

###

- Tested on: CLK4
- test-settings: concentration: 1 μM, replicates: in singlicate; n = 1
readout-name: %Inh (%)
Numbers only; they are read as %.

A selection of reference data follows.
{"smi": "NS(=O)(=O)c1cccc(-c2ccc3ncc(N4CCOCC4)nc3c2)c1", "unit-text": "%", "%Inh": 18}
{"smi": "COc1cc2c(cc1OC[C@@H](O)CO)ncc1c3ccc(C#N)cc3[nH]c21", "unit-text": "%", "%Inh": 89}
{"smi": "Nc1nc(-c2ccc3c(N)n[nH]c3c2)cc(N2CCCC2)n1", "unit-text": "%", "%Inh": 36}

Pending compound:
Short answer for Cc1c2ccc(N(C)c3ccnc(Nc4cccc(S(N)(=O)=O)c4)n3)cc2nn1Cc1ccccc1.Cl.Cl : %Inh was 0

###

- System: TYK2(JH2domain-pseudokinase)
- test-settings: concentration: 1 μM, replicates: in singlicate; n = 1
readout-name: %Inh (%)
Numbers only; they are read as %.

{"compound": "O=C(Nc1n[nH]c2cc(-c3cccc(F)c3)ccc12)C1CC1 [SB-735464]", "assayed-target": "TYK2(JH2domain-pseudokinase)", "%Inh (%)": 10}
{"compound": "O=c1cc(N2CCOCC2)nc2n(Cc3cccc4ccccc34)ccn12 [GSK2333389]", "assayed-target": "TYK2(JH2domain-pseudokinase)", "%Inh (%)": 10}

Pending compound:
TYK2(JH2domain-pseudokinase) data for c1ccc(-c2n[nH]cc2-c2ccnc3ccccc23)nc1 [GW271431] ; its %Inh: 10

Cited source for all entries: paper PMC5540273
